From: patent US20250011413A1

- assay_target: T1, Human PF4 (CXCL4), biotinylated, without heparin (human, UniProt P02776 32-101, biotinylated with EZ-link-Sulfo-NHS-LC-Biotin (sites not given))
- T1 construct: Immobilised on streptavidin biosensors for BLI; also called PF4 alone; platelet factor 4
- T1 sequence: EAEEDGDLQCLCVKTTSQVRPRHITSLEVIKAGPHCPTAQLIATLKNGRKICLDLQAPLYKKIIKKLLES
- measurement_protocol: BLI (Octet), biotinylated PF4 without heparin on streptavidin sensors, scFv at 1 µg/mL, 1:1 model, mean ± s.d. [cont.) b]
value_kind: kon (M⁻¹ s⁻¹)
Numbers only here, please. The scale is M⁻¹ s⁻¹.

Data point: Wildtype scFv (KKO-derived single chain variable fragment) (scFv, VL-(G4S)3 linker-VH; expressed in E. coli BL21 from pADL-22c, purified on Ni-NTA as histidine-tagged scFv, about 28 kDa; also called WT; KKO-scFv; not shown: histidine tag from the pADL-22c vector) scFv: DIQMIQSQKFMSTSVGDRVTVTCKASQNVGTNVAWYQQKPGQSPNALIYSASYRYSGVPDRFTGSGSGTDFTLTITNVQSEDLADYFCQQYNSYPLTFGTGTKLDLKGGGGSGGGGSGGGGSVQLQQSGAELVKPGASVKLSCKASGYTFTNYFIYWVKQRPGQGLEWIGEINPRNGDTDFNEKFESRATLTVDKSSSTAYMQLSSLTSEDSAIYYCTRSPYGNNYGFTYWGQGTLVTVSA ; kon = 12500

Mutant E scFv, scFv(Y156H, D180G, Q233P) (scFv, VL-linker-VH; histidine-tagged, from E. coli BL21; also called Mut E; not shown: histidine tag from the pADL-22c vector) scFv: DIQMIQSQKFMSTSVGDRVTVTCKASQNVGTNVAWYQQKPGQSPNALIYSASYRYSGVPDRFTGSGSGTDFTLTITNVQSEDLADYFCQQYNSYPLTFGTGTKLDLKGGGGSGGGGSGGGGSVQLQQSGAELVKPGASVKLSCKASGYTFTNYFIHWVKQRPGQGLEWIGEINPKNGDTGFNEKFESRATLTVDKSSSTAYMQLSSLTSEDSAIYYCTRSPYGNNYGFTYWGPGTLVTVSA yielded kon of 69300

So for Mutant F scFv, scFv(E183V, E186K, G223R) (scFv, VL-linker-VH; histidine-tagged, from E. coli BL21; also called Mut F; not shown: histidine tag from the pADL-22c vector) scFv: DIQMIQSQKFMSTSVGDRVTVTCKASQNVGTNVAWYQQKPGQSPNALIYSASYRYSGVPDRFTGSGSGTDFTLTITNVQSEDLADYFCQQYNSYPLTFGTGTKLDLKGGGGSGGGGSGGGGSVQLQQSGAELVKPGASVKLSCKASGYTFTNYFIYWVKQRPGQGLEWIGEINPRNGDTDFNVKFKSRATLTVDKSSSTAYMQLSSLTSEDSAIYYCTRSPYRNNYGFTYWGQGTLVTVSA , the logged kon turned out to be 42200
